I'd appreciate it if you could supply IC50 values for the items below.
# System: HCV replicon 1AY93H
# test-protocol: microbe, parasite or virus in culture
# Assay type: cell-based, Hepatitis C virus (HCV)
# experimental-parameters: read-out: 1A Y93H IC50; HCV replicon 1A Y93H; Replicon Assay A
Answer by giving the amount and then stating its unit.

Ask: // query IC50 value for entry COC(=O)NC(C(=O)N1[C@@H]2C[C@@H]2C[C@H]1c1ncc(-c2ccc3c(c2)c(F)c2n3C(c3ccc(C4CC4)s3)Oc3cc(-c4cnc([C@@H]5CCCN5C(=O)[C@@H](NC(=O)OC)C(C)C)[nH]4)ccc3-2)[nH]1)C1C[C@@H](C)O[C@@H](C)C1 (single isomer, unassigned) [Compound 643]
Reply: 0.179 nM

Ask: // query IC50 value for entry COC(=O)N[C@H](C(=O)N1CCC[C@H]1c1ncc(-c2ccc3c(c2)OC(c2ccc(C4CC4)s2)n2c-3cc3cc(-c4cnc([C@@H]5CCCN5C(=O)[C@@H](NC(=O)OC)C(C)C)[nH]4)ccc32)[nH]1)C(C)C (single isomer, unassigned) [Compound 704]
Reply: 0.45 nM

###

I'd appreciate it if you could supply IC50 values for the items below.
# System: HCV replicon 1AY93H
# test-protocol: microbe, parasite or virus in culture
# Type: cell-based, Hepatitis C virus (HCV)
# experimental-parameters: read-out: 1A Y93H IC50; replicon 1AY93H; Replicon Assay A
Field: numeric (nM). Do not append units.

Ask: // query IC50 value for entry COC(=O)NC(C(=O)N1CCC[C@H]1c1ncc(-c2ccc3c(c2)cc2n3C(c3ccc(C4CC4)s3)Oc3cc(-c4cnc([C@@H]5CCCN5C(=O)[C@@H](NC(=O)OC)C5CCOCC5)[nH]4)cc(F)c3-2)[nH]1)C(C)(C)F (single isomer, unassigned) [Compound 174]
Reply: 0.614

Ask: // query IC50 value for entry COC(=O)N[C@H](C(=O)N1CCC[C@H]1c1ncc(-c2cc(F)c3c(c2)OC(c2ccc(OC)s2)n2c-3cc3cc(-c4cnc([C@@H]5CCCN5C(=O)[C@@H](NC(=O)OC)C(C)C)[nH]4)ccc32)[nH]1)C(C)C (single isomer, unassigned) [Compound 19]
Reply: 0.5

Ask: // query IC50 value for entry COC(=O)N[C@H](C(=O)N1CCC[C@H]1c1ncc(-c2cc(F)c3c(c2)OC(c2ccc(C#CC4CC4)s2)n2c-3cc3cc(-c4cnc([C@@H]5CCCN5C(=O)[C@@H](NC(=O)OC)C(C)C)[nH]4)ccc32)[nH]1)C(C)C (single isomer, unassigned) [Compound 85]
Reply: 0.41

Ask: // query IC50 value for entry COC(=O)NC(C(=O)N1CCC[C@H]1c1ncc(-c2ccc3c(c2)cc2n3C(c3ccc(C(C)C)s3)Oc3cc(-c4cnc([C@@H]5CCCN5C(=O)[C@@H](NC(=O)OC)C(C)C)[nH]4)cc(C)c3-2)[nH]1)C1C[C@@H](C)O[C@@H](C)C1 (single isomer, unassigned) [Compound 365]
Reply: 0.38

Ask: // query IC50 value for entry COC(=O)N[C@H](C(=O)N1CCC[C@H]1c1ncc(-c2cc(F)c3c(c2)OC(c2ccc(C(=O)N(C)C)s2)n2c-3cc3cc(-c4cnc([C@@H]5CCCN5C(=O)[C@@H](NC(=O)OC)C(C)C)[nH]4)ccc32)[nH]1)C(C)C (single isomer, unassigned) [Compound 104]
Reply: 0.046

Ask: // query IC50 value for entry CCc1ccc(C2Oc3cc(-c4cnc([C@@H]5CCCN5C(=O)[C@@H](NC(=O)OC)C(C)C)[nH]4)cc(F)c3-c3cc4cc(-c5cnc([C@@H]6CCCN6C(=O)C(NC(=O)OC)C6C[C@@H](C)O[C@@H](C)C6)[nH]5)ccc4n32)s1 (single isomer, unassigned) [Compound 142]
Reply: 0.25

Ask: // query IC50 value for entry COC(=O)NC(C(=O)N1CCC[C@H]1c1ncc(-c2ccc3c(c2)cc2n3C(c3ccc(C(C)C)s3)Oc3cc(-c4cnc([C@@H]5CCCN5C(=O)[C@@H](NC(=O)OC)C(C)C)[nH]4)cc(F)c3-2)[nH]1)C1CCOC(C)(C)C1 (single isomer, unassigned) [Compound 243]
Reply: 0.87

Ask: // query IC50 value for entry COC(=O)NC(C(=O)N1CCC[C@H]1c1ncc(-c2cc(F)c3c(c2)OC(c2ccc(C4CC4)s2)n2c-3cc3cc(-c4cnc([C@@H]5CCCN5C(=O)[C@@H](NC(=O)OC)C(C)C)[nH]4)ccc32)[nH]1)C1C[C@@H](C)O[C@@H](C)C1 (single isomer, unassigned) [Compound 187]
Reply: 14.8

Ask: // query IC50 value for entry COC(=O)NC(C(=O)N1CCC[C@H]1c1ncc(-c2ccc3c(c2)cc2n3C(c3ccc(C4CC4)s3)Oc3cc(-c4cnc([C@@H]5CCCN5C(=O)[C@@H](NC(=O)OC)C(C)C)[nH]4)cc(F)c3-2)[nH]1)C1C[C@H](C)O[C@@H](C)C1 (single isomer, unassigned) [Compound 404]
Reply: 1.25

Ask: // query IC50 value for entry COC(=O)NC(C(=O)N1CCC[C@H]1c1ncc(-c2ccc3c(c2)cc2n3C(c3ccc(C4CC4)s3)Oc3cc(-c4cnc([C@@H]5CCCN5C(=O)[C@@H](NC(=O)OC)C5CCOCC5)[nH]4)cc(F)c3-2)[nH]1)C(C)(C)F (single isomer, unassigned) [Compound 173]
Reply: 0.098

Ask: // query IC50 value for entry COC(=O)NC(C(=O)N1CCC[C@H]1c1ncc(-c2ccc3c(c2)cc2n3C(c3cc(C)c(C)s3)Oc3cc(-c4cnc([C@@H]5CCCN5C(=O)[C@@H](NC(=O)OC)C(C)C)[nH]4)cc(F)c3-2)[nH]1)C(C)(C)F (single isomer, unassigned) [Compound 41]
Reply: 2.45

Ask: // query IC50 value for entry CCc1ccc(C2Oc3cc(-c4cnc([C@@H]5CCCN5C(=O)[C@@H](NC(=O)OC)C(C)C)[nH]4)cc(F)c3-c3cc4cc(-c5cnc([C@@H]6C[C@@H](F)CN6C(=O)C(NC(=O)OC)C6CCOC(C)(C)C6)[nH]5)ccc4n32)s1 (single isomer, unassigned) [Compound 258]
Reply: 0.004

Ask: // query IC50 value for entry CCc1ccc(C2Oc3cc(-c4cnc([C@@H]5CCCN5C(=O)C(NC(=O)OC)C5CCOC(C)(C)C5)[nH]4)cc(F)c3-c3cc4cc(-c5cnc([C@@H]6CCCN6C(=O)[C@@H](NC(=O)OC)C(C)C)[nH]5)ccc4n32)s1 (single isomer, unassigned) [Compound 162]
Reply: 0.004

Ask: // query IC50 value for entry COC(=O)N[C@H](C(=O)N1CCC[C@H]1c1ncc(-c2cc(F)c3c(c2)OC(c2cc(C4CC4)cs2)n2c-3cc3cc(-c4cnc([C@@H]5CCCN5C(=O)[C@@H](NC(=O)OC)C(C)C)[nH]4)ccc32)[nH]1)C(C)C (single isomer, unassigned) [Compound 24]
Reply: 1.35

###

# System: HCV replicon 1AY93H
# test-protocol: microbe, parasite or virus in culture
# Assay type: cell-based, Hepatitis C virus (HCV)
# experimental-parameters: read-out: 1A Y93H IC50; replicon 1AY93H; Replicon Assay A
property: log10 IC50 (log10 of the value in nM)
Remember, log10 of IC50, in nM.

Ask: // query log10 IC50 value for entry CCc1ccc(C2Oc3cc(-c4cnc([C@@H]5CCCN5C(=O)C(NC(=O)OC)C5CCOC(C)(C)C5)[nH]4)cc(F)c3-c3cc4cc(-c5cnc([C@@H]6CCCN6C(=O)[C@@H](NC(=O)OC)C(C)C)[nH]5)ccc4n32)s1 (single isomer, unassigned) [Compound 164]
Reply: -0.89

Ask: // query log10 IC50 value for entry COC(=O)N[C@@H](Cc1ccccc1)C(=O)N1CCC[C@H]1c1ncc(-c2ccc3c(c2)OC(c2ccc(-c4ccc(NC(=O)CCCC[C@@H]5SC[C@@H]6NC(=O)N[C@@H]65)cc4)s2)n2c-3cc3cc(-c4cnc([C@@H]5CCCN5C(=O)[C@H](Cc5ccccc5)NC(=O)OC)[nH]4)ccc32)[nH]1 (single isomer, unassigned) [Compound 385]
Reply: 0.49

Ask: // query log10 IC50 value for entry CCc1ccc(C2Oc3cc(-c4cnc([C@@H]5CCCN5C(=O)[C@@H](NC(=O)OC)C(C)C)[nH]4)cc(F)c3-c3cc4cc(-c5cnc([C@@H]6C[C@@H](F)CN6C(=O)C(NC(=O)OC)C6CCOC(C)(C)C6)[nH]5)ccc4n32)s1 (single isomer, unassigned) [Compound 260]
Reply: -1.33

Ask: // query log10 IC50 value for entry COC(=O)N[C@H](C(=O)N1CCC[C@H]1c1ncc(-c2cc(F)c3c(c2)OC(c2ccc(C(C)C)s2)n2c-3cc3cc(-c4cnc([C@@H]5CCCN5C(=O)[C@@H](NC(=O)OC)C5CCOCC5)[nH]4)ccc32)[nH]1)C(C)C (single isomer, unassigned) [Compound 344]
Reply: -0.89

Ask: // query log10 IC50 value for entry CCc1ccc(C2Oc3cc(-c4cnc([C@@H]5CCCN5C(=O)C(NC(=O)OC)C5CCOC(C)(C)C5)[nH]4)cc(F)c3-c3cc4cc(-c5cnc([C@@H]6CCCN6C(=O)[C@@H](NC(=O)OC)C(C)C)[nH]5)ccc4n32)s1 (single isomer, unassigned) [Compound 159]
Reply: -0.11

Ask: // query log10 IC50 value for entry CC[C@@H]1CC(C(NC(=O)OC)C(=O)N2CCC[C@H]2c2ncc(-c3ccc4c(c3)cc3n4C(c4ccc(C5CC5)s4)Oc4cc(-c5cnc([C@@H]6CCCN6C(=O)[C@@H](NC(=O)OC)C(C)C)[nH]5)cc(F)c4-3)[nH]2)C[C@H](CC)O1 (single isomer, unassigned) [Compound 287]
Reply: -1.13

Ask: // query log10 IC50 value for entry COC(=O)N[C@H](C(=O)N1CCC[C@H]1c1ncc(-c2cc(F)c3c(c2)OC(c2ccc(CC4CC4)s2)n2c-3cc3cc(-c4cnc([C@@H]5CCCN5C(=O)[C@@H](NC(=O)OC)C5CCOCC5)[nH]4)ccc32)[nH]1)C(C)C (single isomer, unassigned) [Compound 357]
Reply: -2.39

Ask: // query log10 IC50 value for entry COC(=O)NC(C(=O)N1CCC[C@H]1c1ncc(-c2cc(F)c3c(c2)OC(c2ccc(C4CC4)s2)n2c-3cc3cc(-c4cnc([C@@H]5CCCN5C(=O)[C@@H](NC(=O)OC)C(C)C)[nH]4)ccc32)[nH]1)C1C[C@@H](C)O[C@@H](C)C1 (single isomer, unassigned) [Compound 189]
Reply: -0.59

Ask: // query log10 IC50 value for entry COC(=O)NC(C(=O)N1CCC[C@H]1c1ncc(-c2ccc3c(c2)cc2n3C(c3ccc(C4CC4)s3)Oc3cc(-c4cnc([C@@H]5CCCN5C(=O)[C@@H](NC(=O)OC)C(C)C)[nH]4)cc(F)c3-2)[nH]1)C1C2COCC21 (single isomer, unassigned) [Compound 339]
Reply: -2.33

Ask: // query log10 IC50 value for entry COC(=O)N[C@H](C(=O)N1CCC[C@H]1c1ncc(-c2cc(F)c3c(c2)OC(c2ccc(C(=O)N(C)C)s2)n2c-3cc3cc(-c4cnc([C@@H]5CCCN5C(=O)[C@@H](NC(=O)OC)C(C)C)[nH]4)ccc32)[nH]1)C(C)C (single isomer, unassigned) [Compound 103]
Reply: 0.71

Ask: // query log10 IC50 value for entry COC(=O)NC(C(=O)N1CCC[C@H]1c1ncc(-c2ccc3c(c2)cc2n3C(c3ccc(C4CC4)s3)Oc3cc(-c4cnc([C@@H]5CCCN5C(=O)[C@@H](NC(=O)OC)C(C)C)[nH]4)cc(F)c3-2)[nH]1)C1CCO[C@@H](C)C1 (single isomer, unassigned) [Compound 354]
Reply: -0.42

Ask: // query log10 IC50 value for entry COC(=O)NC(C(=O)N1CCC[C@H]1c1ncc(-c2ccc3c(c2)cc2n3C(c3ccc(C4CC4)s3)Oc3cc(-c4cnc([C@@H]5CCCN5C(=O)[C@@H](NC(=O)OC)C(C)C)[nH]4)cc(F)c3-2)[nH]1)C1CCOC(C)(C)C1 (single isomer, unassigned) [Compound 222]
Reply: -0.62

Ask: // query log10 IC50 value for entry CCc1ccc(C2Oc3cc(-c4cnc([C@@H]5CCCN5C(=O)[C@@H](NC(=O)OC)C(C)C)[nH]4)cc(F)c3-c3cc4cc(-c5cnc([C@@H]6CCCN6C(=O)C(NC(=O)OC)C6CCOC(C)(C)C6)[nH]5)ccc4n32)s1 (single isomer, unassigned) [Compound 149]
Reply: 1.41

Ask: // query log10 IC50 value for entry CCc1ccc(C2Oc3cc(-c4cnc([C@@H]5CCCN5C(=O)C(NC(=O)OC)C5CCOC(C)(C)C5)[nH]4)cc(F)c3-c3cc4cc(-c5cnc([C@@H]6CCCN6C(=O)C(NC(=O)OC)C6CCOC(C)(C)C6)[nH]5)ccc4n32)s1 (single isomer, unassigned) [Compound 298]
Reply: 0.09
